- method-summary: in vitro
- run-parameters: human, hepg2-a16-cd81egfp cells, % viability
Item-by-item account of viability at 3 µM
Answer format: numeric, % implied, no suffix.

INSERT INTO measurements (compound, unit_string, endpoint_result) VALUES
  ('CC(C)c1ccccc1OCC(O)CN(CC(O)COc1cccc2ccccc12)C(C)C (centres unmarked)', '%', 100);

Input Nc1nonc1-n1nnc(C(=O)N/N=C/c2ccc(Cl)cc2)c1-c1ccc2c(c1)OCO2 , output reported viability at 3 µM.
104

Query viability at 3 µM for OC(CNCC1CCCO1)Cn1c2ccc(Cl)cc2c2cc(Cl)ccc21 (centres unmarked)
90.7

Return reported viability at 3 µM. Input compound: COc1cc2nc(Nc3ccc(F)cc3)nc(N)c2cc1OC
92.7

For O=C1C=C(c2cccc(CO)c2)C[C@@H](c2ccc(Cl)cc2)C1 , write its viability at 3 µM.
102

Indicate its recorded viability at 3 µM; the compound in question is O=C(Nc1ccc(N2CCN(c3ncccc3C(F)(F)F)CC2)nc1)c1cccs1
92

Retrieve viability at 3 µM measured for CC(C)(C)CC(C)(C)c1ccc(O)c(Cc2ccc(Cl)cc2Cl)c1 and print it.
93.1

Retrieve viability at 3 µM measured for O=C(Nc1ccc(-c2csc(Nc3cccc(C(F)(F)F)c3)n2)cc1)c1cc([N+](=O)[O-])cc(C(F)(F)F)c1 and print it.
101

Supply recorded viability at 3 µM for CCCCN(CC)CCNC(=O)c1cc2c(-c3ccc(Cl)cc3)nn(C)c2s1 here.
90.6

Specify measured viability at 3 µM for Cc1ccc(Nc2nnc(SCC(=O)c3ccc(O)cc3O)s2)cc1 .
99.9

Let me know recorded viability at 3 µM for Cc1ccc(CNCc2cc3c(C(C)(C)C)nn(-c4ccccc4)c3[nH]c2=O)cc1 , thanks.
106

###

- method-summary: in vitro
- run-parameters: human, hepg2-a16-cd81egfp cells, % viability
quantity-name: viability at 3 µM (%)
Hi! Could you send only the number? It should be in %, unit omitted.

Consider the worked cases shown below.
INSERT INTO results (line_notation, quantity_name, endpoint_result) VALUES
  ('Clc1ccc(NNc2ccnc3cc(Cl)ccc23)cc1', 'viability at 3 µM', 90.3),
  ('Cc1ccc(Cl)cc1NC(=O)c1cc2ccccc2cc1O', 'viability at 3 µM', 74);

Look up and report measured viability at 3 µM for this entry: CN1CCc2cccc3c2[C@@H]1Cc1ccc(O)c(O)c1-3
93.3

###

- method-summary: in vitro
- run-parameters: human
quantity-name: viability (%)
Write the number in % without appending the unit.

// below: answered compounds
INSERT INTO results (line_notation, endpoint_result) VALUES
  ('CC(C)(C)c1ccc(O)c(CN2CCN(c3ccccc3)CC2)c1', 98.2),
  ('Cc1c2ccncc2c(C)c2c1[nH]c1ccccc12', 102);

Read the next record carefully.
// fetch viability given entry CCc1cccc(-n2c(=O)c3cccnc3n2CC(=O)NCc2ccc(C)cc2)c1
83.3

###

- Tested on: P. berghei-ANKA-GFP-LucCON liver stage parasites in HepG2-A16-CD81EGFP cells
- method-summary: P. berghei liver stage Pb-Luc assay, Method 1 (UCSD, 1536-well)
- Assay type: cell-based, Plasmodium berghei
- run-parameters: Plasmodium berghei, 48 h, 3 uM (compounds provided at 10 mM); average of 2 wells on a 1536 well plate; column 8; read-out: Pb-Luc (P. berghei liver stage), % of control, higher concentration, first repeat
activity at 3 µM values by entry
// return numeric value only (unit: %, not printed)

Reference set (3 entries):
INSERT INTO assay_data (molecule, endpoint_result) VALUES
  ('Cc1cc(N)c2cc(NC(=O)/C=C/c3ccccc3Cl)ccc2n1 [MLS000737665-01]', 21),
  ('Cc1cccc(Nc2nc(NCc3ccco3)c3ccccc3n2)c1 [MLS000662793-01]', 13),
  ('COc1cc2nc(Nc3ccc(C)c(Cl)c3)nc(N)c2cc1OC [MLS001199666-01]', 97);

Now consider a different molecule.
State its activity at 3 µM: CCN1CCN(Cc2ccc(NC(=O)c3cc(NC(=O)c4cnn(-c5ccccc5)c4N)cc(OC)c3)cc2C(F)(F)F)CC1 [MLS000911569-01]
116

###

- method-summary: in vitro
- run-parameters: human, HepG2-A16-CD81EGFP cells, uninfected
quantity-name: viability at 48 h, 1 µM (%)
State the answer as a number, implicitly in %.

INSERT INTO measurements (compound, quantity_name, unit_string, endpoint_result) VALUES
  ('COc1ccc(CN2CCCC3(C2)C(NC2CCCCC2)=NC(=O)N3c2cc(F)cc(F)c2)cc1 (stereo not drawn) [NCGC00373972-01]', 'viability at 48 h, 1 µM', '%', 107),
  ('Cc1ccc(/C=N/Nc2cc(C)nc(NCc3ccccc3)n2)cc1 [MLS000769291-01]', 'viability at 48 h, 1 µM', '%', 98);

Next up:
Please list viability at 48 h, 1 µM recorded for the compound COc1ccc(CCn2c(=N)c(C(=O)NC3CCCCC3)cc3c(=O)n4ccccc4nc32)cc1 [MLS001146200-01]
102

###

- System: HepG2
- run-parameters: human, hepg2 cells, 48 h
// values below are reported Log AC50 (M)
API: value field is a number in M; no unit string.

Recorded results for 4 compounds are shown here.
INSERT INTO assay_data (compound, endpoint_result) VALUES
  ('CCCCCn1c(=N)n(CC(O)COc2cccc(C)c2)c2ccccc21 (stereo not shown)', -4.3643),
  ('Cc1ccc(NC(=O)CSc2n[nH]c(-c3ccccn3)n2)cc1', -4.6143),
  ('Cc1cccc(Oc2nc(-c3ccccn3)nc3ccccc23)c1', -4.9143),
  ('C=C(C)COc1ccc(-c2n[nH]c(C)c2-c2ccccc2)c(O)c1', -4.3643);

Output measured Log AC50 (M) for this item: Nc1nc(N)c2c(ccc3[nH]ccc32)n1
-4.9143

Please give measured Log AC50 (M) of the following entry: COc1ccc2nc3cc(Cl)ccc3c(Nc3cc(C(C)C)c(O)cc3C)c2c1
-4.3643

Indicate its recorded Log AC50 (M); the compound in question is O=C1NC(=S)S/C1=C\C=C\c1ccc([N+](=O)[O-])o1
-4.8643

Input COc1cc(OC)c(NC2=CC(=O)C(=O)c3ccccc32)cc1Cl , output reported Log AC50 (M).
-4.3643

Give me measured Log AC50 (M), please, for this compound: Cc1ccc(CNCc2cc3c(C(C)(C)C)nn(-c4ccccc4)c3[nH]c2=O)cc1
-4.3643

Please look at this compound and report its Log AC50 (M): CC(=O)C1=C(c2ccc(Cl)c(Cl)c2)N(C(C)=O)n2cnnc2S1
-4.3643

Using the record for Cc1cc(O)c(-c2cc(C(=O)Nc3sc4c(c3C(=O)NCc3ccco3)CCC4)[nH]n2)cc1C , state its measured Log AC50 (M).
-4.4643

###

- method-summary: in vitro
- run-parameters: human, hepg2-a16-cd81egfp cells, % viability
quantity-name: viability at 3 µM
# number then unit; no other words

Check out these entries, answers already filled in.
INSERT INTO measurements (line_notation, endpoint_result) VALUES
  ('C=C(C)CSc1nc2sc3c(c2c(=O)n1-c1ccc(C)cc1)CCN(C)C3', '86.9%'),
  ('CCOc1ccc(-n2c(SCC(=O)OC)nc3sc4c(c3c2=O)CCN(C)C4)cc1', '103%');

Look up and state reported viability at 3 µM for Cn1nc(C(F)(F)F)c(-c2ccc(F)cc2)c1NC(=O)Nc1ccc(F)cc1
99%

###

- method-summary: in vitro
- run-parameters: human, HepG2-A16-CD81EGFP cells, uninfected
quantity-name: viability at 48 h, 1 µM (%)
Note: unit % is implicit; provide only the numeric part.

Solved entries:
INSERT INTO measurements (compound, endpoint_result) VALUES
  ('CCOc1cc(CN2CCCC(N3CCN(c4ccc(F)cc4)CC3)C2)ccc1OC (stereo not shown)', 114),
  ('CCOC(=O)c1ccc2c(c1)[C@@H]1C=CC[C@@H]1[C@H](c1cccc(OC)c1OC)N2', 97.9);

Specify reported viability at 48 h, 1 µM for the compound shown: CCOC(=O)c1c(S(=O)(=O)N2CCCC(C(=O)N3CCN(c4cccc(C)c4C)CC3)C2)c(C)n(C)c1C (stereo not shown)
96.4

Consider the compound O=C(Nc1ccc(N2CCCCC2)c(Cl)c1)c1nnc[nH]1 . State its measured viability at 48 h, 1 µM.
101

Please report the measured viability at 48 h, 1 µM for NNC(=O)CN1C(c2cccc(Cl)c2)=Nc2ccc(Br)cc2C1c1ccccc1 (stereo not shown)
90

Indicate its recorded viability at 48 h, 1 µM; the compound in question is O=C(NC(c1ccc(Cl)cc1)c1cc(Cl)c2cccnc2c1O)c1cccnc1 (stereo not shown)
84

Return reported viability at 48 h, 1 µM. Input compound: CCCCCCSc1ccc([C@H]2N[C@@](Cc3ccccc3)(C(=O)OC)[C@H]3C(=O)N(C)C(=O)[C@@H]23)cc1
112

Could you please provide reported viability at 48 h, 1 µM for N#Cc1nc(Nc2cc(F)cc(F)c2)c2ncn(CC(F)F)c2n1 ? Thanks!
97

# return recorded viability at 48 h, 1 µM for entry Cc1ccc(NC(=O)c2cc(C(=O)c3cc(Cl)ccc3O)cn(-c3ccc(C)cc3)c2=O)cc1
106

Specify measured viability at 48 h, 1 µM for COC(=O)c1c(-c2c(Cl)cccc2Cl)noc1NC(=O)NN1CCCCC1 .
93

Supply reported viability at 48 h, 1 µM belonging to this compound: Cc1ccc(C)c(Cn2c(=O)n(CCCCC(=O)NCc3ccc4c(c3)OCO4)c(=O)c3ccccc32)c1
99.1

Consider the compound CC(C)(C)OC(=O)N1CCC(CC2CC(c3ccccc3)=NO2)(C(=O)NCc2ccccc2)CC1 (stereo not shown) and give its recorded viability at 48 h, 1 µM.
111

Given CCCNC(=O)c1ccc(N2CCC3(CC2)CC(c2cccc(Br)c2)=NO3)c(NC(=O)c2ccco2)c1 , respond with its viability at 48 h, 1 µM.
118

Annotate the compound COc1ccccc1-c1nnc2sc(COc3ccc(F)cc3)nn12 with its measured viability at 48 h, 1 µM.
102

Report measured viability at 48 h, 1 µM; entry is Cc1ccc(C)c(NC(=O)CN(C)C(=O)c2ccc(-c3ccc(Cl)cc3)o2)c1
98

Input CCCOC(=O)c1c(NC(=O)C(C)Sc2nc(-c3ccccc3)cc(C(F)(F)F)n2)sc(C(=O)N(C)C)c1C (stereo not shown) , output reported viability at 48 h, 1 µM.
98.8
